Would you mind telling me the reported TGI of each entry?
Tested on: SN12C renal
Assay: NCI tumour cell line growth inhibition, 48 h

{"columns": ["molecule smiles", "assay target", "assay value"],
 "data": [
  ["C=CC(=O)Nc1cc2c(Nc3ccc(F)c(Cl)c3)ncnc2cc1C#CC(C)(C)N1CCN(C)CC1", "SN12C renal", "2.51 µM"],
  ["CC(=O)Oc1cc2cnc3c4cc(OC(C)=O)c(OC(C)=O)cc4ccc3c2cc1OC(C)=O", "SN12C renal", "> 100 µM"],
  ["CN(N=O)c1nc2c(C(N)=O)ncn2s1", "SN12C renal", "> 100 µM"]
]}

For every item below, please supply its TGI.
1. Nn1c(-c2ccc(Cl)cc2)nc2c(-c3ccc(Cl)cc3)nc3ccc(Cl)cc3c2c1=O
2. Cc1cc(-c2nc3c(F)cccc3s2)ccc1N

OUT:
1. > 100 µM
2. > 100 µM

----------
Would you mind telling me the reported TGI of each entry?
Test system: HL-60(TB) leukemia
Assay: NCI tumour cell line growth inhibition, 48 h
Where a SMILES comes first, the peptide text is derived from it. The star is where a group is joined. Boc = CC(C)(C)OC(=O)*; nBu = CCCC*

Solved cases below.
{"columns": ["compound", "metric", "assay value"],
 "data": [
  ["O=c1[nH]cnc2n[nH]nc12", "TGI", "> 56.4 µM"],
  ["CCCCOc1ccc(CC(NC(=O)OC(C)(C)C)C(=O)NC(C)C(=O)NC(Cc2ccccc2)C(=O)NCC(N)=O)cc1 (configuration not stated) (Boc-Y(nBu)AFG-NH2; configuration not given here)", "TGI", "> 100 µM"],
  ["CCCCCCCCCCCCCCCC[n+]1ccccc1", "TGI", "1.21 µM"],
  ["CC(Oc1ccc(Cl)cc1Cl)C(=O)NN1C(=O)CC(=O)N(c2ccccc2)C1=S (configuration not stated)", "TGI", "5.73 µM"],
  ["CN=c1sc2nc(C#N)c(C#N)nc2n1C", "TGI", "> 40.4 µM"],
  ["O=[N+]([O-])/C(Cl)=C(/C(Cl)=C(Cl)Cl)N1CCOCC1", "TGI", "5.23 µM"],
  ["COC(=O)c1ccc2c(c1)CC1(C2)Cc2ccccc2C1=O (configuration not stated)", "TGI", "56.9 µM"],
  ["Cc1ccc(-c2cc(-c3ccc(Cl)cc3)nc(/N=C3\\C(=O)N(CN(C)C)c4ccccc43)n2)cc1", "TGI", "26.2 µM"]
]}

For every item below, please supply its TGI.
1. COc1cc(-c2nn(-c3cccc(NC(=O)CCNc4ccc(N5CCOCC5)cc4)c3)cc2-c2ccncc2)ccc1Cl
2. COc1ccc(-c2nc(-c3cnccn3)n(C3OC(CO)C(O)C3O)n2)cc1 (configuration not stated)
3. CCCc1nc2c(n1CC)C(=O)c1ccccc1C2=O
4. CCOc1ccc(NC(=O)C(=O)Nn2c(N)nnc2N)cc1
5. COc1ccccc1-c1c(C#N)c(N)[nH]c(=S)c1C#N
6. OCC(O)C(O)C(O)c1nn(-c2ccc(F)cc2)c2nc3cc(Cl)c(Cl)cc3nc12 (configuration not stated)

OUT:
["> 100 µM", "> 10 µM", "> 100 µM", "> 100 µM", "> 100 µM", "> 100 µM"]

For every item below, please supply its TGI.
1. O=C1Oc2ccccc2C(=O)/C1=C/N1C(=O)CNC1=S
2. Oc1ccccc1C=Nc1ccc(-c2nc3ccccc3s2)cc1
3. Cc1ccc(OC(=O)N2C/C(=C\c3ccccc3)C(=O)/C(=C/c3ccccc3)C2)cc1
4. Nc1ccccc1C#Cc1ccccc1C#Cc1cccs1
5. C1=CC2CCC1CN2CCC1CNc2ccccc21 (configuration not stated)
6. C/C(C=O)=C/[C@@]1(C)O[C@@H](C)[C@@](C)(O)[C@@H]1O
7. COc1ccc2nc3ccc(OC)cc3c(SCCCl)c2c1
8. COc1cc(OC)c2c(=O)c3cccc(C)c3n(C)c2c1

OUT:
1: > 100 µM; 2: 91.2 µM; 3: 15.6 µM; 4: > 100 µM; 5: > 100 µM; 6: > 100 µM; 7: > 21.1 µM; 8: > 100 µM

----------
Test system: SK-MEL-2 melanoma
Experiment: NCI tumour cell line growth inhibition, 48 h; in the data active = GI50 below about 0.43 µM; inactive = the rest
Thanks in advance; please answer with one of these: active, inactive

A selection of reference data follows.
{"columns": ["compound", "assay target", "group label"],
 "data": [
  ["N#[N+]c1ccc(Nc2ccccc2)cc1", "SK-MEL-2 melanoma", "inactive"],
  ["CCCCCCCCCCCCCCCC[n+]1ccccc1", "SK-MEL-2 melanoma", "inactive"],
  ["CN1CC[C@H](c2c(O)cc(O)c3c(=O)cc(-c4ccccc4Cl)oc23)[C@H](O)C1", "SK-MEL-2 melanoma", "active"],
  ["COc1ccc(/C=C/C(=O)c2cc3c(N)c(C(=O)Nc4ccc(OC)cc4)sc3nc2C)cc1", "SK-MEL-2 melanoma", "active"],
  ["COc1ccc(-c2c(N)noc2-c2cc(OC)c3c(c2)OCCO3)cc1", "SK-MEL-2 melanoma", "active"]
]}

IN: Hey, what did the test say about O=[N+]([O-])/C=C/c1ccc(Cl)cc1[N+](=O)[O-] ?
OUT: inactive

IN: Hey, what did the test say about CN(C)c1ccc(-c2ccc(-c3ccc(C(=N)N)cn3)o2)cc1 ?
OUT: inactive

----------
Tested on: SR leukemia
Assay: NCI tumour cell line growth inhibition, 48 h
Would you mind telling me the reported TGI of each entry?
Answers are plain numbers, in µM.

{"columns": ["molecule smiles", "assay value"],
 "data": [
  ["O=[N+]([O-])/C(Cl)=C(/C(Cl)=C(Cl)Cl)N1CCOCC1", 6.42]
]}

Consider now this further compound.
Entry CCCCOC/N=C(/N)NC#N , TGI reported as 63.1

----------
System: RXF 393 renal
Test: NCI tumour cell line growth inhibition, 48 h
metric: TGI

Solved cases below.
{"columns": ["molecule smiles", "assay value"],
 "data": [
  ["CCN(c1ccccc1)[C@H]1C(=O)N(c2ccc([N+](=O)[O-])cc2)[C@H]1c1ccc(OC)cc1", "> 100 µM"],
  ["CN(N=O)c1nc2c(C(N)=O)ncn2s1", "> 100 µM"],
  ["O=C(O)c1ccccc1NCn1c(=S)sc2ccccc21", "> 100 µM"]
]}

For every item below, please supply its TGI.
1. Nc1ccccc1C(=O)N=Nc1c(O)[nH]c2ccccc12
2. CCCCCCCCCCCCCCCC[n+]1ccccc1

OUT:
1. > 100 µM
2. 0.688 µM

----------
Test system: EKVX NSCLC
Assay: NCI tumour cell line growth inhibition, 48 h
metric: TGI

Solved cases below.
{"columns": ["compound", "TGI"],
 "data": [
  ["Nc1nc(SCC(=O)c2ccc(Br)cc2)c2[nH]cnc2n1", "> 100 µM"],
  ["O=C1C(=O)C2(CC1S(=O)(=O)c1ccccc1)c1ccccc1-c1ccccc12 (stereo not given)", "72.8 µM"],
  ["Cc1cc(O)c(/C=N/C(=S)Nc2ccc(S(N)(=O)=O)cc2)c(=O)o1", "> 100 µM"],
  ["CCOc1ccc2cc(-c3nn(CC4CCNCC4)c4ncnc(N)c34)ccc2c1", "> 100 µM"],
  ["COc1cc(C2c3cc4c(cc3C(=O)C3CCC(=O)N32)OCO4)cc(OC)c1O (stereo not given)", "> 50 µM"]
]}

For every item below, please supply its TGI.
1. NC(=O)[N+](=CC(=S)Nc1ccccc1Cl)C(N)=O
2. COC(=O)c1c(O)ccc2c1c1cc3ccccc3c(O)c1n2CCc1ccc(OC)c(OC)c1
3. COc1cc(-c2nn(-c3cccc(NC(=O)CCN4CCN(c5ccccc5)CC4)c3)cc2-c2ccncc2)ccc1Cl
4. COC(=O)/C=C/[C@@H]1[C@H](C)N1S(=O)(=O)c1ccc(C)cc1 (stereo not given in full)
5. Nn1c(-c2ccc(Cl)cc2)nc2c(-c3ccc(Cl)cc3)nc3ccc(Cl)cc3c2c1=O

OUT:
> 100 µM
> 100 µM
> 100 µM
> 100 µM
> 100 µM

----------
Test system: TK-10 renal
Assay: NCI tumour cell line growth inhibition, 48 h
Would you mind telling me the reported TGI of each entry?

{"columns": ["compound", "assay value"],
 "data": [
  ["Cc1c(-c2ccccc2)[nH]c2cn[nH]c(=O)c12", "> 100 µM"],
  ["CN(CCc1ccccn1)c1ccc2c(c1)C(=O)c1ccccc1-2", "> 100 µM"],
  ["CCOC(=O)C(=CNc1ccc(F)c(F)c1)C(=O)OCC", "> 100 µM"],
  ["CN(N=O)c1nc2c(C(N)=O)ncn2s1", "> 100 µM"],
  ["CC(O)[C@H](NC(=O)N[C@@H](CC(N)=O)c1nc(N2CCNCC2)no1)C(=O)O (some centres undefined)", "> 100 µM"]
]}

For every item below, please supply its TGI.
1. Cc1ccc2ccc(-c3ccccc3)c3c2c1C(=O)c1ccccc1C3=O
2. Cc1[nH]c(-c2ccccc2)c2nc(N(C)C)oc(=O)c12
3. CCOc1ccc(NC(=O)C(=O)Nn2c(N)nnc2N)cc1
4. CCOC(=O)C1=C(OC(OCC)C(CC)[Se]c2ccccc2)CCC1 (centres undefined)
5. CC1OC(OC2C(O)C(O)C(O)C(O)C2O)C(N)CC1N=C(N)C(=O)O (centres undefined)
6. CCOC1Oc2ccc(C)cc2C(=O)/C1=C\Nc1ccc(S(N)(=O)=O)cc1 (centres undefined)
7. CC1(C)C2CCC13C(=O)C1OC3(C2)C2C(=O)c3c(ccc4c3ccc3ccccc34)C(=O)C12 (centres undefined)

OUT:
> 100 µM
> 100 µM
> 100 µM
> 100 µM
> 100 µM
> 50 µM
> 100 µM

For every item below, please supply its TGI.
1. COCC(C(=O)OC1C/C=C/C=C/C(=O)OC(C(C)C(O)C(C)CCC(OC(=O)C(C)N(C)C)C(C)C(OC(C)=O)C(C)/C=C/N(C)C=O)C/C=C/C(OC)CC(C)C/C=C(\C)C(OC)CCC(C)C(O)C1C)N(C)C (centres undefined)
2. CC(=O)[C@H]1[C@H](O)C[C@@]2(C)[C@@H]3CCc4cc(O)c(OC5OC(CO)C(O)C(O)C5O)cc4C3(C)C(=O)C[C@]12C (some centres undefined)
3. COc1ccc2[nH]c3c(c2c1)[C@H]1CCC(C(C)(C)C)C[C@H]1[C@H]1C(=O)N(c2ccccc2)C(=O)[C@@H]31 (some centres undefined)
4. CCc1ccc2c(c1)N(CCO)C1=C(C(=O)OC1)C2c1cc(OC)c(OC)c(OC)c1 (centres undefined)

OUT:
["0.0877 µM", "> 100 µM", "> 74.1 µM", "> 50 µM"]

For every item below, please supply its TGI.
1. COc1ccc2c(c1OC)O/C(=C\c1ncc([N+](=O)[O-])n1C)C2=O
2. CCOC(=O)c1nc2ccc(C(F)(F)F)cc2nc1Nc1ccc(OC)cc1
3. COC(=O)c1c(O)ccc2c1c1cc3ccccc3c(O)c1n2CCc1ccc(OC)c(OC)c1

OUT:
1. > 24.1 µM
2. > 100 µM
3. > 100 µM
